- Test system: NCI-H460 lung
- test.summary: NCI tumour cell line growth inhibition, 48 h
measured.quantity: TGI

Here are 3 molecules together with their reported answers.
{"molecule": "NCCCCNOCCCN", "val": "> 100 µM"}
{"molecule": "COC1=CC(=O)C(O)=C(CC2(C)C(C)CCC3(C)C2CCCC3(C)C)C1=O (configuration not stated)", "val": "10.6 µM"}
{"molecule": "CCN(CC)c1ccc(Cl)c2c1C(O)(C(C)C)C2(C)C (configuration not stated)", "val": "33.9 µM"}

Moving on to the next molecule.
Look up and report measured TGI for this entry: Cc1nc2ccc(S(=O)(=O)O)cc2c(=O)n1-c1ccc(C(=O)NN2C(=O)C(Cl)C2c2cccs2)cc1 (configuration not stated) > 100 µM

* * *

- System: T-47D breast
- test.summary: NCI tumour cell line growth inhibition, 48 h
measured.quantity: GI50

Supply measured GI50 of O=S(=O)(Nc1ccccc1)c1ccc(C2CC3(Cl)C(Cl)=C(Cl)C2(Cl)C3(Cl)Cl)cc1 (centres undefined) in your reply. 2540 nM

Annotate the compound CC1=C(C(=O)Nc2ccc3[nH]ncc3c2)C(c2ccc(F)cc2)N=C(c2ccc(C(F)(F)F)nc2)N1 (centres undefined) with its measured GI50. > 20000 nM

Return value of GI50 for input Nc1cc(C(F)(F)F)c(-c2nc(N3CCOCC3)nc(N3CCOCC3)n2)cn1 , no commentary. 32.8 nM

Give the value of GI50 reported for the following: O=[N+]([O-])c1ccc(N/N=C\c2cc(Br)ccc2O)nc1 2070 nM

Input N#C[Se]CCN1C(=O)c2ccccc2C1=O , output reported GI50. 3450 nM

Give the measured GI50 for O=C1[C@H](Cc2ccc(O)cc2)N2C(=O)CCN(C(=O)NCc3ccccc3)[C@H]2CN1Cc1cccc2ccccc12 2340 nM

Consider the compound CC(=O)O[C@H]1C[C@@H]2[C@@]3(C)CC[C@H]4C[C@@]4(C)[C@@H]3CC[C@@]2(C)C2=CCC3=C(COC3=O)[C@]21C and give its recorded GI50. 20700 nM

Report GI50 for O=C(O)CSc1cc(NS(=O)(=O)c2ccc(Br)cc2)c2ccccc2c1O 4840 nM

Give the reported value of GI50 for this record: C=CCN(CC=C)Cc1c[nH]c2ccccc12 > 100000 nM

* * *

- System: ACHN renal
- test.summary: NCI tumour cell line growth inhibition, 48 h; in the data active = GI50 below about 0.43 µM; inactive = the rest
Entry note: the call must match one of yes (1) for active, no (0) for inactive

A selection of reference data follows.
{"compound": "O=C(/C=C(\\[O-])c1ccccc1)CCCCCCC(=O)/C=C(\\[O-])c1ccccc1.O=C(/C=C(\\[O-])c1ccccc1)CCCCCCC(=O)/C=C(\\[O-])c1ccccc1.O=C(/C=C(\\[O-])c1ccccc1)CCCCCCC(=O)/C=C(\\[O-])c1ccccc1.[Y+3].[Y+3]", "assigned.class": "no (0)"}
{"compound": "COc1cc2c3c(n(CCCN)c(=O)c2cc1OC)-c1ccc(N)cc1C3=O", "assigned.class": "no (0)"}
{"compound": "CC[C@]12C=CCN3CC[C@@]4(c5ccc(OC)cc5N(C)[C@H]4[C@@](O)(C(=O)OC)[C@@H]1OC(=O)CCCN1CCN(CCCC(=O)O[C@@H]4[C@]5(CC)C=CCN6CC[C@@]7(c8ccc(OC)cc8N(C)[C@H]7[C@@]4(O)C(=O)OC)[C@@H]65)CC1)[C@@H]32", "assigned.class": "no (0)"}
{"compound": "CN(C)[C@@H]1C(=O)C(C(=O)NCc2nc3[nH]cnc(=S)c3[nH]2)=C(O)[C@@]2(O)C(=O)C3=C(O)c4c(O)cccc4[C@@](C)(O)[C@H]3C[C@@H]12", "assigned.class": "no (0)"}
{"compound": "COc1ccc(-n2c(=O)c3ccccc3n(Cc3ccc(C(=O)NO)cc3)c2=O)cc1", "assigned.class": "no (0)"}

State the result this test recorded for CCCCCCCCCCN=C(N)c1ccc(N2CCN(c3ccc(C(N)=NCCCCCCCCCC)cc3)CC2)cc1 . no (0)

Fill in: this test's call for CC(=O)O[C@H]1C[C@@H]2[C@@]3(C)CC[C@H]4C[C@@]4(C)[C@@H]3CC[C@@]2(C)C2=CCC3=C(COC3=O)[C@]21C is ___ no (0)

Call for entry O=S(=O)(Nc1ccccc1)c1ccc(C2CC3(Cl)C(Cl)=C(Cl)C2(Cl)C3(Cl)Cl)cc1 (stereo not given) : no (0)

Could you please tell me the result logged for COc1cc(NC(=O)COc2ccccc2)c(C(N)=O)cc1OC in this assay? no (0)

Please state the recorded outcome for this compound: Nc1cc(C(F)(F)F)c(-c2nc(N3CCOCC3)nc(N3CCOCC3)n2)cn1 yes (1)

Just curious, what result did CCOC(=O)C#Cc1c(C(=O)OCC)nnn1[C@@H]1O[C@H](COC)[C@@H](OC)[C@H]1OC get here? no (0)

Write down the call the test reported for this compound. Item: COc1ccc([C@@H]2[C@@H](Oc3ccccc3)C(=O)N2c2cc(OC)c(OC)c(OC)c2)cc1F yes (1)

* * *

TGI values by entry
- Tested on: UACC-257 melanoma
- test.summary: NCI tumour cell line growth inhibition, 48 h

{"compound": "O=C1/C(=C/c2ccc(Br)s2)NC(=S)N1CN1CCCCC1", "measured.quantity": "TGI", "val": "> 100 µM"}
{"compound": "CC1OC(OC2C(OC(=O)[C@]34CCC(C)(C)C[C@H]3C3=CC[C@@H]5[C@@]6(C)CC[C@H](OC7OC(CO)C(O)C(O)C7OC7OC(CO)C(O)C(O)C7O)C(C)(C)[C@@H]6CC[C@@]5(C)[C@]3(C)CC4)OCC(O)C2O)C(O)C(O)C1OC1OCC(O)C(O)C1O (stereo partly drawn)", "measured.quantity": "TGI", "val": "9.17 µM"}

Enter measured TGI, system UACC-257 melanoma, for the compound shown: N#CCc1nc(-c2cc3ccccc3oc2=O)cs1 > 100 µM

Please look at COc1ccc(Cn2c(Br)c3c(c2-c2cc(OC)c(OC)c(OC)c2)CCc2sc(N)nc2-3)cc1 and tell me its recorded TGI on UACC-257 melanoma. 51.3 µM

Write down the reported TGI (system: UACC-257 melanoma) of CN(CC(=O)Nc1ccccc1C(=O)O)c1ccccc1 > 100 µM

Give measured TGI for O=C1NC(=O)N(S(=O)(=O)c2cc(C(=O)Nc3ccc(Cl)cc3)c(Cl)cc2S)S(=O)(=O)N1 (UACC-257 melanoma). 37.1 µM

* * *

- Test system: SF-539 CNS
- test.summary: NCI tumour cell line growth inhibition, 48 h
measured.quantity: log10 TGI (log10 of the value in µM)
Would you kindly interpret these values as log10 of TGI expressed in µM?

Below are worked cases with known answers.
{"compound": "CC1(C)CC2=NO[Se]3=C2C(=NO3)C1", "log10 TGI": 0.76}
{"compound": "Oc1c(Br)cc(Cl)cc1C(c1cc(Cl)cc(Br)c1O)C(Cl)(Cl)Cl", "log10 TGI": 1.03}
{"compound": "Cc1nc2ccc(N=Nc3c(C)noc3C)cc2[nH]1", "log10 TGI": 1.85}
{"compound": "COc1cc(/C=C/c2cc(/C=C/c3ccc(O)c(OC)c3)n(C(=O)Nc3ccc(C)cc3)n2)ccc1O", "log10 TGI": 0.39}
{"compound": "O=C(NO)c1ccc(CNc2cccc3nc(C4CC4)n(-c4ccccc4)c(=O)c23)cc1", "log10 TGI": 0.55}
{"compound": "CCCCCCCCCCN=C(N)c1ccc(N2CCN(c3ccc(C(N)=NCCCCCCCCCC)cc3)CC2)cc1", "log10 TGI": 0.83}
{"compound": "CCCCCCCCCCCCOC1C(C(COC2OC(C(O)CO)C3OC(C)(C)OC23)OC(=O)Nc2ccccc2)OC2OC(C)(C)OC21 (stereo not given)", "log10 TGI": 1.35}
{"compound": "COC1=CC(=O)C(O)=C(CC2(C)C(C)CCC3(C)C2CCCC3(C)C)C1=O (stereo not given)", "log10 TGI": 0.98}

Consider the compound O=C1C(Cl)=CC2(C=C1Cl)CCN=c1c(O)c3c(c(O)c12)=NC=N3 . State its measured log10 TGI. 1.95

Provide log10 TGI value for the following compound: COC(=O)c1sc(=S)sc1SCc1cccc(CSc2sc(=S)sc2C(=O)OC)c1 1.80

Provide measured log10 TGI value, entry: COC(=O)/C=C1\C(CO[Si](C)(C)C(C)(C)C)OC(n2ccc(=O)[nH]c2=O)C1O (stereo not given) 1.48

Give recorded log10 TGI. CC(C)c1ccc2c(c1)CCC1C2CCCC1(C)NCc1ccccc1 (stereo not given) 1.27

* * *

- System: MOLT-4 leukemia
- test.summary: NCI tumour cell line growth inhibition, 48 h; in the data active = GI50 below about 0.43 µM; inactive = the rest
Hi there, use one of these labels in your reply, thanks! label 1 for active, label 0 for inactive

Example entries and their recorded answers appear below.
{"compound": "O=C1C[C@@H]2OCC=C3C[N+]4([O-])CC[C@]56c7ccccc7N1[C@H]5[C@H]2[C@H]3C[C@@H]64 (stereo partly drawn)", "assigned.class": "label 0"}
{"compound": "FC(F)(F)c1cccc(CNC2CCN(CCc3ccccc3)CC2)c1", "assigned.class": "label 0"}
{"compound": "OC[C@H]1C[C@](O)(c2ccc(F)cc2)[C@@H](c2ccc(F)cc2)O1", "assigned.class": "label 0"}

What classification did COc1cc(NC(=O)COc2ccccc2)c(C(N)=O)cc1OC end up with in this test? label 0

Returns: the outcome recorded for COc1cc2c(cc1OCCN1CCN(CCN3C(=O)c4cccc5cccc(c45)C3=O)CC1)N=C[C@@H]1CCCN1C2=O in this assay. label 0

Assay outcome for CC(=O)O[C@H]([C@H](OC(C)=O)[C@H](C)OC(C)=O)[C@@H](/C=C/[C@H]1CC=CC(=O)O1)OC(C)=O : what was it? label 0

Test call for this compound, please: OCc1ccc(N2CCc3ccc(F)cc3C2)cc1Cl label 0

What call does the record list for COc1ccc([C@@H]2[C@@H](Oc3ccccc3)C(=O)N2c2cc(OC)c(OC)c(OC)c2)cc1F ? label 1
